Test: Lipophilicity, log P of the compound
Format: physicochemical
Conditions: octanol/water
readout: logP
Respond with the number and no other words.

Req: Kindly indicate its recorded logP. Item: OC(c1cc(C(F)(F)F)nc2c(C(F)(F)F)cccc12)C1CCCCN1 (stereo unspecified)
Resp: 2.47
